Provenance of the data: ChEMBL document CHEMBL3997796

Biological target: Autotaxin (Homo sapiens)
Assay: Inhibition of recombinant human C-terminal FLAg-tagged ATX nucleotide pyrophosphate phosphatase activity expressed in baculovirus infected sf9 cells using pNP-TMP as substrate measured every 2 mins for 1 hr by fluorescence assay
Activity calls are given as the source filed them. The rule behind the calls is not given here.
Observed Property: inhibition

Cpd Smiles | inhibition
O=C(Nc1ccc(F)c(F)c1)c1cc(S(=O)(=O)N2CCOCC2)c(Cl)cc1Cl | inactive
O=C(Nc1cc(Cl)c(Cl)c(Cl)c1)c1cc(S(=O)(=O)N2CCOCC2)c(Cl)cc1Cl | inactive
CN1CCN(S(=O)(=O)c2cc(C(=O)Nc3cc(Cl)c(F)c(Cl)c3)c(Cl)cc2Cl)CC1 | inactive
O=S(=O)(c1cc(C(=S)Nc2cc(F)c(F)c(F)c2)c(Cl)cc1Cl)N1CCOCC1 | inactive

Q. For the compound "O=S(=O)(c1cc(-c2nc3cccc(F)c3o2)c(Cl)cc1Cl)N1CCOCC1" , what inhibition is on record?
A. inactive

* * *

Target: Lysophosphatidic acid receptor 1 (Homo sapiens, UniProt Q92633)
Sequence (Q92633 whole entry): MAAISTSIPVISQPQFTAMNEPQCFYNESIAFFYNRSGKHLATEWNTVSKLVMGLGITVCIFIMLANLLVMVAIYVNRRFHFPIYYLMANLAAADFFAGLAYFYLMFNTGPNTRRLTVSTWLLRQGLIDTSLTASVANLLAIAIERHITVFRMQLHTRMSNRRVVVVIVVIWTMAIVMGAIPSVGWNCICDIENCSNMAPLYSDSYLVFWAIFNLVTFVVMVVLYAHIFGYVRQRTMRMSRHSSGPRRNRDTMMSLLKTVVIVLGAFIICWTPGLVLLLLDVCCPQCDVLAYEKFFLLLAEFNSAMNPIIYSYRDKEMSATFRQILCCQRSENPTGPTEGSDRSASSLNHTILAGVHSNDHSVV
Assay: Agonist activity at LPA1 receptor (unknown origin) expressed in rat RH7777 cells assessed as increase in intracellular calcium level measured every 3.42 secs for 70 secs by Fura-2-AM dye based fluorescence assay
Observed Property: pEC50
Scale: negative log10 of molar concentration, which is what pEC50 denotes.

Q. Provide value of pEC50 for this record tested with Lysophosphatidic acid receptor 1 (Homo sapiens, UniProt Q92633): CCCCCCCC/C=C\CCCCCCCC(=O)OCC(O)COP(=O)(O)O (stereo unspecified)
A. 7.10
